molecular target: Huntingtin (Homo sapiens) (UniProt P42858); experiment: mutant huntingtin-calmodulin interaction inhibitors – biochemical, AlphaScreen, primary screen (AID 1671202); conditions: AlphaScreen His-mHTT/GST-CaM binding, luminescence; at 15 µM;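 note: 0% = both proteins with DMSO and 100% = one protein alone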
Sequence (P42858 whole entry, looked up, stated change not applied): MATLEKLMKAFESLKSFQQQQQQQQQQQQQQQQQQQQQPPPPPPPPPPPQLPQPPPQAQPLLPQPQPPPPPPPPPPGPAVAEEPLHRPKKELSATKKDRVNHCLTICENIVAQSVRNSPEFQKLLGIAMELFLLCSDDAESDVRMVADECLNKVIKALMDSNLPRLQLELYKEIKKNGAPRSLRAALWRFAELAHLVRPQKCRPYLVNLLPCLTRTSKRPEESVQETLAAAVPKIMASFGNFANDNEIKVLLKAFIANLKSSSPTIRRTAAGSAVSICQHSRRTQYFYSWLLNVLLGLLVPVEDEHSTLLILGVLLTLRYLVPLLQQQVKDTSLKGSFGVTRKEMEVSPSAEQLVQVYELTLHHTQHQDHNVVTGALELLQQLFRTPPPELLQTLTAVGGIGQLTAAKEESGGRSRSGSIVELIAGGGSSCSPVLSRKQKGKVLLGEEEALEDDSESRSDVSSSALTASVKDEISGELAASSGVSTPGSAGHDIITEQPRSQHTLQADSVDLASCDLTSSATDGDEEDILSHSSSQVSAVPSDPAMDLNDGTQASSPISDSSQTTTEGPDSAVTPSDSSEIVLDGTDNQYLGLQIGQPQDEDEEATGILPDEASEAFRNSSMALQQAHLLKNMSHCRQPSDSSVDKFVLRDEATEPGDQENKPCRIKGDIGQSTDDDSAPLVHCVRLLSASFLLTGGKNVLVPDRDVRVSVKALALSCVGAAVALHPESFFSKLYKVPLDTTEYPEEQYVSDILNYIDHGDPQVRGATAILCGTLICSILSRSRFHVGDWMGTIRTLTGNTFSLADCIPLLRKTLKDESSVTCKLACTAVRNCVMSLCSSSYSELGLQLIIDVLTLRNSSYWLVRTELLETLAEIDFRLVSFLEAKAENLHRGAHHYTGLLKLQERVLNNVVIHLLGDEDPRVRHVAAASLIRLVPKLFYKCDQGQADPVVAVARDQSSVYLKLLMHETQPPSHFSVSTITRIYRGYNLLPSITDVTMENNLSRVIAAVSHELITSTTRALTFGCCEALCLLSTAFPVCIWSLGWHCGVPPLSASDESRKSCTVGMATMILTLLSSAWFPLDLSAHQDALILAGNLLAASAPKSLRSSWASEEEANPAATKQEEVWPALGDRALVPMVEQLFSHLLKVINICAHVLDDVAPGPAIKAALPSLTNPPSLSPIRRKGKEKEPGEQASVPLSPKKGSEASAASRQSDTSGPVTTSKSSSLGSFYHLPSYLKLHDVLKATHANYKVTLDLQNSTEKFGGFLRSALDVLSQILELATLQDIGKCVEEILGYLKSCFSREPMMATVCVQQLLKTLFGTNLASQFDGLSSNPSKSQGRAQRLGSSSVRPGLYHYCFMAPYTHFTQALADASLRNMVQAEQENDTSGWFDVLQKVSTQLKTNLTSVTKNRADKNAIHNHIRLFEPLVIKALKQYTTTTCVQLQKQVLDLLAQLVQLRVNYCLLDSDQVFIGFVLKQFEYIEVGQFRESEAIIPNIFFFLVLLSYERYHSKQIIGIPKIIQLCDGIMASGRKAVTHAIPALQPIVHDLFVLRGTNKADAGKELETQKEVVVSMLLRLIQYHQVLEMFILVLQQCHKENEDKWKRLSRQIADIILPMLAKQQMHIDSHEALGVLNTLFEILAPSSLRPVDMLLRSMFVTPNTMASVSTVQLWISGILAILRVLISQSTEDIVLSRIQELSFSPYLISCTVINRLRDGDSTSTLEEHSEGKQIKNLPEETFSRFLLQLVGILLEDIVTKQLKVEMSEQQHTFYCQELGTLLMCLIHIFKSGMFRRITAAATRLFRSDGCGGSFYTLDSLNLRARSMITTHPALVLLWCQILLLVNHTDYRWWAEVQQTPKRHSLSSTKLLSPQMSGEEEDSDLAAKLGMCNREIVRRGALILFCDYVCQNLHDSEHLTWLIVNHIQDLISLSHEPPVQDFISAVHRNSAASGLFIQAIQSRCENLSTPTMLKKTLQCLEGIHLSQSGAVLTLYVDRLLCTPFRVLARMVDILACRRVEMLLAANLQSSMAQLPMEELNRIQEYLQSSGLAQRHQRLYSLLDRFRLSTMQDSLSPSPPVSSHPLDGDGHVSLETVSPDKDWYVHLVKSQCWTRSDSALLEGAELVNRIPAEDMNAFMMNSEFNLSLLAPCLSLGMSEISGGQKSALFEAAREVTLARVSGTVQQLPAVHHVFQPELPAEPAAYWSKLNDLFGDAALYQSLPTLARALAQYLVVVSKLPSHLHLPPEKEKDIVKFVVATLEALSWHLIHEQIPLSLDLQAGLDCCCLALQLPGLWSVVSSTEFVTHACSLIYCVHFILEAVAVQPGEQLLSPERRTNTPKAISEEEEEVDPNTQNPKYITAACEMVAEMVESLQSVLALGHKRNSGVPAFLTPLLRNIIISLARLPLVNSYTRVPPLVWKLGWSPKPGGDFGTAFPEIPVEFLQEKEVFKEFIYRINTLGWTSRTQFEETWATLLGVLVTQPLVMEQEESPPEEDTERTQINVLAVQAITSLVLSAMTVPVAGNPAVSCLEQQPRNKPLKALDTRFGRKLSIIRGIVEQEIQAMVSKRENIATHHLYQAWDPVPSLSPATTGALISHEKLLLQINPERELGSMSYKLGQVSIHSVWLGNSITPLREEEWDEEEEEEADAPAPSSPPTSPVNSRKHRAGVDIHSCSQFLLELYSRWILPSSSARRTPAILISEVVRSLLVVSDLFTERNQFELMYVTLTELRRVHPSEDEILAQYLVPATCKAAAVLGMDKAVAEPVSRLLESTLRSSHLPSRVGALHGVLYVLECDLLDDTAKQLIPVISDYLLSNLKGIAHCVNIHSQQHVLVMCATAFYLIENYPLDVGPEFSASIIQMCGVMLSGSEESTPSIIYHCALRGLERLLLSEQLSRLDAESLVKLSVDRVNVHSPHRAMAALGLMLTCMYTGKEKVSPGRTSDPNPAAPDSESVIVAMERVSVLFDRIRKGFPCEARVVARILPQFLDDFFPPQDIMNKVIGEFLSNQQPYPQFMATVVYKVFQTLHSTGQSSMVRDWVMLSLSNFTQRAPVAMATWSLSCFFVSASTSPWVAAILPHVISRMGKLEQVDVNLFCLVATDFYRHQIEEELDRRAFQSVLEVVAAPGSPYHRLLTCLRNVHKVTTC
Among all 190,000 compounds or so, about 6,900 (3.6%) were called active. Cut-off read from the data, not from the text of the source: active = inhibition above about 50%; inactive = the rest. Many of the other results were omitted from the sample, so actives are more common in it than they were.
Mark one answer only. Choices: active, inactive

Short answer needed: outcome of this test for COc1cc(OC)c2c(c1)OC(=O)CC2c1cc(OC)c(OC)c(OC)c1 (stereo unspecified) ?
inactive

Short answer needed: outcome of this test for Cc1ccc(C(C)C)cc1OCCN1CCCC1 ?
inactive

Short answer needed: outcome of this test for COc1cc(OC)c2c(c1C(CCN1CCCCC1)c1ccc(N(C)C)cc1)OC(=O)CC2c1ccc(N(C)C)cc1 (stereo unspecified) ?
active

Short answer needed: outcome of this test for COc1cccc(N2CCN(C(=O)c3cccs3)C(C)C2=O)c1 (stereo unspecified) ?
inactive

Short answer needed: outcome of this test for COc1cc(OC)c2c(C)cc(=O)oc2c1C(CCN1CCCCC1)c1ccc(N(C)C)cc1 (stereo unspecified) ?
active

Short answer needed: outcome of this test for CCOc1ccccc1C(=O)NCc1nnc2n1CCCC2 ?
inactive

Short answer needed: outcome of this test for Cc1ccc(NC(=O)C2CCc3sc(C(=O)N(C)C)cc3C2)cc1Cl (stereo unspecified) ?
inactive

Short answer needed: outcome of this test for O=C1C[C@@H]2c3c(cccc3CN1Cc1ccccc1)C[C@@H](O)[C@H]2O ?
inactive

Short answer needed: outcome of this test for COc1ccc(-c2c(C)c3ccc(OCCN4CCCCC4)cc3oc2=O)cc1OC ?
inactive

Short answer needed: outcome of this test for O=C(Cn1ncn2nc(-c3ccc(Cl)cc3)cc2c1=O)Nc1ccccc1C(F)(F)F ?
inactive

Short answer needed: outcome of this test for O=C1C[C@H]2C=CCc3cccc(c32)CN1Cc1ccccc1 ?
active

###

biological target: Huntingtin (Homo sapiens) (UniProt P42858); experiment: mutant huntingtin-calmodulin interaction inhibitors – biochemical, AlphaScreen, primary screen (AID 1671202); settings: AlphaScreen His-mHTT/GST-CaM binding, luminescence; at 15 µM, hits give high values;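 note: 0% = both proteins with DMSO and 100% = one protein alone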
About 6,900 (3.6%) of roughly 190,000 compounds were called active. The entries come from a sample that favours actives as a whole.
READOUT_KIND: inhibition (%)
Write the answer as a number in %, unit excluded.

Fill in the recorded inhibition for this molecule, with Huntingtin (Homo sapiens) (UniProt P42858) as test system: O=C(NCc1ccccn1)C1CN(C(=O)c2ccncc2)CC12CCCCC2 (configuration not stated)
-2.9

Fill in the recorded inhibition for this molecule, with Huntingtin (Homo sapiens) (UniProt P42858) as test system: COc1ccc(C)cc1NC(=O)N1CC2CC(NC(=O)c3cccs3)C1C2 (configuration not stated)
3.7

Fill in the recorded inhibition for this molecule, with Huntingtin (Homo sapiens) (UniProt P42858) as test system: O=c1[nH]c(C=C2C=Nc3ccc(Br)cc32)c(O)n1Cc1ccc(Br)cc1
93

Fill in the recorded inhibition for this molecule, with Huntingtin (Homo sapiens) (UniProt P42858) as test system: COc1ccc(C=C2Oc3cc(OC(C)=O)ccc3C2=O)c(OC)c1OC
16.2

Fill in the recorded inhibition for this molecule, with Huntingtin (Homo sapiens) (UniProt P42858) as test system: Oc1cccc(N=Cc2cc(Cl)cc(Cl)c2O)c1
98

Fill in the recorded inhibition for this molecule, with Huntingtin (Homo sapiens) (UniProt P42858) as test system: CC(=O)N1CCN(c2nc3c(s2)CC(C(=O)NCCCN2CCC(C)CC2)CC3)CC1 (configuration not stated)
4.75

Fill in the recorded inhibition for this molecule, with Huntingtin (Homo sapiens) (UniProt P42858) as test system: O=C(CSc1nc(-c2ccccc2)nc2c1CCCC2)c1ccc(O)c(O)c1
52

Fill in the recorded inhibition for this molecule, with Huntingtin (Homo sapiens) (UniProt P42858) as test system: COc1cc(NC(=O)C2CN(C(=O)c3ccncc3)CC23CCCCC3)cc(OC)c1 (configuration not stated)
87.6

Fill in the recorded inhibition for this molecule, with Huntingtin (Homo sapiens) (UniProt P42858) as test system: C=CCNCCCOc1ccc(Br)cc1C
0.1

Fill in the recorded inhibition for this molecule, with Huntingtin (Homo sapiens) (UniProt P42858) as test system: O=C(NCC1(c2ccccc2)CCOCC1)C(=O)Nc1cccnc1
-3.4

Fill in the recorded inhibition for this molecule, with Huntingtin (Homo sapiens) (UniProt P42858) as test system: COc1ccccc1NC(CNS(=O)(=O)c1ccc(Cl)cc1)c1ccccc1 (configuration not stated)
64

Fill in the recorded inhibition for this molecule, with Huntingtin (Homo sapiens) (UniProt P42858) as test system: COc1ccccc1NC(=O)CC(C)c1ccccc1 (configuration not stated)
-7.2

Fill in the recorded inhibition for this molecule, with Huntingtin (Homo sapiens) (UniProt P42858) as test system: Cc1cccc2nnc(N3CCC(C(=O)N4CCOCC4)CC3)n12
1.65

Fill in the recorded inhibition for this molecule, with Huntingtin (Homo sapiens) (UniProt P42858) as test system: COc1ccccc1NC(=O)c1cc(S(=O)(=O)NCc2ccccc2Cl)ccc1F
-3

Fill in the recorded inhibition for this molecule, with Huntingtin (Homo sapiens) (UniProt P42858) as test system: CC(=O)N(C)C1(C(=O)NC2CCCCC2)CCCCC1
4

Fill in the recorded inhibition for this molecule, with Huntingtin (Homo sapiens) (UniProt P42858) as test system: O=C(c1ccsc1)N1CCCC2(C1)Nc1ccccc1NC2=NC1CCCC1 (configuration not stated)
4.96

Fill in the recorded inhibition for this molecule, with Huntingtin (Homo sapiens) (UniProt P42858) as test system: CCc1ccccc1NC(=O)c1cc2n(n1)CCCN(Cc1ccc(F)cc1)C2=O
-3.32

Fill in the recorded inhibition for this molecule, with Huntingtin (Homo sapiens) (UniProt P42858) as test system: Cc1cc(C)cc(N2C(=O)C(N3C(=O)c4ccccc4C3=O)C2c2ccc(F)cc2)c1 (configuration not stated)
3

Fill in the recorded inhibition for this molecule, with Huntingtin (Homo sapiens) (UniProt P42858) as test system: CCOC(=O)N1CCC(c2nnc(Cc3ccc(OC)cc3)s2)CC1
-8.5

Fill in the recorded inhibition for this molecule, with Huntingtin (Homo sapiens) (UniProt P42858) as test system: Cn1cccc1C(=O)N1CC2CC1CC2NS(=O)(=O)c1cccs1 (configuration not stated)
14.1

Fill in the recorded inhibition for this molecule, with Huntingtin (Homo sapiens) (UniProt P42858) as test system: COCCN=C1Nc2ccccc2NC12CCCN(S(=O)(=O)c1cccc(OC)c1)C2 (configuration not stated)
11.2

Fill in the recorded inhibition for this molecule, with Huntingtin (Homo sapiens) (UniProt P42858) as test system: O=C(CSc1nc2[nH]ncc2c(=O)n1-c1ccccc1)c1ccc(Cl)c(Cl)c1
48
